From: patent US8895585B2

- target: glutathione S-transferase (GST)-fused full-length human Syk protein (Homo sapiens, UniProt P43405)
- Construct: (GST)-fused full-length human Syk protein; GST (glutathione S-transferase); purchased Carna Biosciences
- experimental_protocol: Syk enzyme assay
- Assay type: biochemical
- assay_setup: Syk enzyme assay, Test Example 1; read-out: IC50 of Syk-inhibitory activity
Here, each record is paired with measured IC50 data.

Here's what some known entries look like.
# molecule, value_type, result
records = [
    ("COc1cc(Nc2nc(N[C@H](c3ccccc3)[C@@H](N)c3ccccc3)c(F)cc2C(N)=O)ccn1", "IC50", "10 to 50 nM"),
    ("CCC[C@@H](Nc1nc(Nc2cc(OC)nc(OC)c2)c(C(N)=O)cc1F)[C@@H](N)CC", "IC50", "< 10 nM"),
    ("COc1cc(Nc2nc(NCc3cc4ccccc4[nH]3)c(F)cc2C(N)=O)cc(OC)c1", "IC50", "100 to 1000 nM"),
]

Turning now to a further molecule:
Consider COc1cccc(-c2cncc(Nc3nc(N[C@@H](CN)CC(C)C)c(F)cc3C(N)=O)c2)c1 . Its measured IC50 is < 10 nM
